# experimentalSystem: T1, human TREK-1 potassium channel expressed in the h-TREK-1/HEK cell line (human, UniProt O95069 1-426)
# T1 sequence (looked up): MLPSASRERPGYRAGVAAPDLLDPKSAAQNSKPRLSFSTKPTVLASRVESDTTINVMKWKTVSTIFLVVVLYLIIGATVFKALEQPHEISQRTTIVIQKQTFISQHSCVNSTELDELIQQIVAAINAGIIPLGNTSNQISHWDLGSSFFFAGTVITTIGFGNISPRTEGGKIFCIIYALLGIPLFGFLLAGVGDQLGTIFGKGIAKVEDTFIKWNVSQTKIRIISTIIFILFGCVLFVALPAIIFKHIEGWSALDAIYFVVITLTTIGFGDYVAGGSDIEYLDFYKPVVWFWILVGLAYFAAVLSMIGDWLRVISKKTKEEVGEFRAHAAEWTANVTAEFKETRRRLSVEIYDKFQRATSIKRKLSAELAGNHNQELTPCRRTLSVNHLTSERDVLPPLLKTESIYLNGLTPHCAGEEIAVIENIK
# assayProtocol: cell-based or functional assay
Square brackets hold non-standard residues; d marks the D form.
readout: IC50 of TREK-1 current inhibition (dose-response, whole cell patch clamp, 0 mV) (nM)
Report as a plain number; the unit nM is understood.

# binder, measValue
data = [
    ("Ac-APLPRWSGPIGVSWGLR-NH2 [Analog 2 (SEQ ID NO:3), Ac-APLPRWSGPIGVSWGLR-NH2]", 60),
]

Exam item: State the recorded IC50 of TREK-1 current inhibition (dose-response, whole cell patch clamp, 0 mV) for this entry: cyclo([dR][dL]G[dW][dS][dV]G[dI][dP]G[dS][dW][dR][dP][dL][dP][dA]) (SMILES CC[C@@H](C)[C@H]1NC(=O)CNC(=O)[C@@H](C(C)C)NC(=O)[C@@H](CO)NC(=O)[C@@H](Cc2c[nH]c3ccccc23)NC(=O)CNC(=O)[C@@H](CC(C)C)NC(=O)[C@@H](CCCNC(=N)N)NC(=O)[C@@H](C)NC(=O)[C@H]2CCCN2C(=O)[C@@H](CC(C)C)NC(=O)[C@H]2CCCN2C(=O)[C@@H](CCCNC(=N)N)NC(=O)[C@@H](Cc2c[nH]c3ccccc23)NC(=O)[C@@H](CO)NC(=O)CNC(=O)[C@H]2CCCN2C1=O) [Analog 15 (SEQ ID NO:20), c(rlGwsvGipGswrplpa)]
Marked response: 0.04

Exam item: State the recorded IC50 of TREK-1 current inhibition (dose-response, whole cell patch clamp, 0 mV) for this entry: Ac-APLPRWSAPIAVSWALR-NH2 [Analog 13 (SEQ ID NO:14), Ac-APLPRWSAPIAVSWALR-NH2]
Marked response: 0.04

Exam item: State the recorded IC50 of TREK-1 current inhibition (dose-response, whole cell patch clamp, 0 mV) for this entry: Ac-[dR][dL]G[dW][dS][dV]G[dI][dP]G[dS][dW][dR][dP][dL][dP][dA]-NH2 (SMILES CC[C@@H](C)[C@@H](NC(=O)CNC(=O)[C@H](NC(=O)[C@@H](CO)NC(=O)[C@@H](Cc1c[nH]c2ccccc12)NC(=O)CNC(=O)[C@@H](CC(C)C)NC(=O)[C@@H](CCCNC(=N)N)NC(C)=O)C(C)C)C(=O)N1CCC[C@@H]1C(=O)NCC(=O)N[C@H](CO)C(=O)N[C@H](Cc1c[nH]c2ccccc12)C(=O)N[C@H](CCCNC(=N)N)C(=O)N1CCC[C@@H]1C(=O)N[C@H](CC(C)C)C(=O)N1CCC[C@@H]1C(=O)N[C@H](C)C(N)=O) [Analog 3 (SEQ ID NO:4), Ac-rlGwsvGipGswrplpa-NH2]
Marked response: 11.5

Data origin: patent US20170072013A1
